Please go through the items and note down their β-Arrestin EC50.
# Experimental System: chemokine receptor CXCR7 (UniProt P25106 1-362, limits assumed)
# Sequence (P25106 whole entry): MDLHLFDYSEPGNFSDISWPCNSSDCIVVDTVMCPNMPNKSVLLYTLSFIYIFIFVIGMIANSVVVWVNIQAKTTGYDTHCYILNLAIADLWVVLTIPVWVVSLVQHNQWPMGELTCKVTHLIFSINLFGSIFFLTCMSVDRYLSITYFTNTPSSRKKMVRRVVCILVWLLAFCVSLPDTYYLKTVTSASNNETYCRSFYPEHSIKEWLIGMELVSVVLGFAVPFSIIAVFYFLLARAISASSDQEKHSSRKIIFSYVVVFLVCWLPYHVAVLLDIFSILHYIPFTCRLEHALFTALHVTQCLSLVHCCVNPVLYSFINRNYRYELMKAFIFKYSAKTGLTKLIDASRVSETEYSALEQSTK
# Test Description: cell-based or functional assay
Square brackets hold non-standard residues; d marks the D form. dPro(cis-4-NH2) = N[C@H]1CN[C@@H](C(=O)O)C1; Tic = O=C(O)[C@@H]1Cc2ccccc2CN1; Cha = N[C@@H](CC1CCCCC1)C(=O)O; Agb = N=C(N)NCC[C@H](N)C(=O)O; Agp = N=C(N)NC[C@H](N)C(=O)O; dDab = NCC[C@@H](N)C(=O)O; Mor = not defined here
Numbers only, in nM.

Example results:
>>> observed("cyclo(W[dF]WR[dP][Pro((4R)NH2)]) [cyclo(-Trp-^DPhe-Trp-Arg-^DPro-Pro((4R)NH2)-)]")
26.9
>>> observed("cyclo(W[dF]WR[dP][Mor]) (reading uncertain; also: printed as cyclo(-Trp-^DPhe-Trp-Arg-^DPro-Mor-)) [cyclo(-Trp-^DPhe-Trp-Arg-^DPro-Mor-)]")
132
>>> observed("cyclo([Agb][dF]WR[dPro(cis-4-NH2)][Tic]) (SMILES N=C(N)NCCC[C@@H]1NC(=O)[C@H](Cc2c[nH]c3ccccc23)NC(=O)[C@@H](Cc2ccccc2)NC(=O)[C@H](CCNC(=N)N)NC(=O)[C@@H]2Cc3ccccc3CN2C(=O)[C@H]2C[C@@H](N)CN2C1=O) [cyclo(-Agb-^DPhe-Trp-Arg-^DPro((4R)NH2)-Tic-)]")
452
>>> observed("cyclo([Cha][dR]RW[dP]T) (SMILES C[C@@H](O)[C@@H]1NC(=O)[C@H]2CCCN2C(=O)[C@H](Cc2c[nH]c3ccccc23)NC(=O)[C@H](CCCNC(=N)N)NC(=O)[C@@H](CCCNC(=N)N)NC(=O)[C@H](CC2CCCCC2)NC1=O) [cyclo(-Cha-^DArg-Arg-Trp-^DPro-Thr-)]")
37.7

Kindly give each listed record's β-Arrestin EC50.
1. cyclo(I[dR][Agb]W[dP]T) (SMILES CC[C@H](C)[C@@H]1NC(=O)[C@H]([C@@H](C)O)NC(=O)[C@H]2CCCN2C(=O)[C@H](Cc2c[nH]c3ccccc23)NC(=O)[C@H](CCNC(=N)N)NC(=O)[C@@H](CCCNC(=N)N)NC1=O) [cyclo(-Ile-^DArg-Agb-Trp-^DPro-Thr-)]
2. cyclo(I[dR][Agp]W[dP]T) (SMILES CC[C@H](C)[C@@H]1NC(=O)[C@H]([C@@H](C)O)NC(=O)[C@H]2CCCN2C(=O)[C@H](Cc2c[nH]c3ccccc23)NC(=O)[C@H](CNC(=N)N)NC(=O)[C@@H](CCCNC(=N)N)NC1=O) [cyclo(-Ile-^DArg-Agp-Trp-^DPro-Thr-)]
3. cyclo(I[dDab]RW[dP]T) (SMILES CC[C@H](C)[C@@H]1NC(=O)[C@H]([C@@H](C)O)NC(=O)[C@H]2CCCN2C(=O)[C@H](Cc2c[nH]c3ccccc23)NC(=O)[C@H](CCCNC(=N)N)NC(=O)[C@@H](CCN)NC1=O) [cyclo(-Ile-^DDab-Arg-Trp-^DPro-Thr-)]

Solution:
1. 22.3
2. 90.5
3. 48.4
